For each entry below, report its pIC50 value.
# Target of assay: B-RAF^V600E (Homo sapiens, UniProt P15056, V600E)
# Sequence (P15056 whole entry V600E): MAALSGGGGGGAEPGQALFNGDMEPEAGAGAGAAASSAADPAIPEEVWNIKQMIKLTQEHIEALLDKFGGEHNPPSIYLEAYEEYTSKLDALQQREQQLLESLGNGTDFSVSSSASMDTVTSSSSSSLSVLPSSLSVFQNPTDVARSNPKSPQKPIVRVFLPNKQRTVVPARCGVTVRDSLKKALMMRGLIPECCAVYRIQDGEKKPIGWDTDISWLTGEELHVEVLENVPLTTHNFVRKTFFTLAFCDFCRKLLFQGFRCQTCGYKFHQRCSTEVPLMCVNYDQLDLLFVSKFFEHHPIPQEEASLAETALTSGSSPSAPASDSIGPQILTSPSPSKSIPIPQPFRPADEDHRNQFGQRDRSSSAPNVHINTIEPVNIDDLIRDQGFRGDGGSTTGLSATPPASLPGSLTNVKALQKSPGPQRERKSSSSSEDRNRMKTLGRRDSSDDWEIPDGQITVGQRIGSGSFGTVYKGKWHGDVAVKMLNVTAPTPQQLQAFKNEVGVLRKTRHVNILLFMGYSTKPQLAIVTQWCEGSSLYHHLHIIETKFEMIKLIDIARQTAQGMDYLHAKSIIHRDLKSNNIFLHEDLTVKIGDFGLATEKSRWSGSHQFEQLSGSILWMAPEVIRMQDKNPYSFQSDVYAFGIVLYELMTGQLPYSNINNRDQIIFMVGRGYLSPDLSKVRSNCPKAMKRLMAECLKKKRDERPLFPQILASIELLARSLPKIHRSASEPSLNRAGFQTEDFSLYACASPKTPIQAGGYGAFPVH
# Method notes: B-RAF^V600E Kinase Assay Kit
The value called pIC50 is obtained by taking minus log10 of the concentration in mol/L.

In: Any idea what pIC50 came out for COc1ccc(/C(CSc2nnc(-c3nnn(-c4ccc(S(N)(=O)=O)cc4)c3C)n2-c2ccccc2)=N\O)cc1 [Compound 19c] on B-RAF^V600E (Homo sapiens, UniProt P15056, V600E)?
Out: 7.05

In: Next molecule: COc1ccc(-n2c(SC/C(=N/O)c3ccc(C)cc3)nnc2-c2nnn(-c3ccc(S(N)(=O)=O)cc3)c2C)cc1 [Compound 19h]
Out: 7.15

Reference for the values: paper PMC11003496
